molecular target: Transient receptor potential cation channel subfamily M member 5 (Homo sapiens, UniProt Q9NZQ8); assay: Agonist activity at human TRPM5 expressed in HEK cells by whole cell electrophysiology method; assay type: cell-based
Sequence (Q9NZQ8 whole entry): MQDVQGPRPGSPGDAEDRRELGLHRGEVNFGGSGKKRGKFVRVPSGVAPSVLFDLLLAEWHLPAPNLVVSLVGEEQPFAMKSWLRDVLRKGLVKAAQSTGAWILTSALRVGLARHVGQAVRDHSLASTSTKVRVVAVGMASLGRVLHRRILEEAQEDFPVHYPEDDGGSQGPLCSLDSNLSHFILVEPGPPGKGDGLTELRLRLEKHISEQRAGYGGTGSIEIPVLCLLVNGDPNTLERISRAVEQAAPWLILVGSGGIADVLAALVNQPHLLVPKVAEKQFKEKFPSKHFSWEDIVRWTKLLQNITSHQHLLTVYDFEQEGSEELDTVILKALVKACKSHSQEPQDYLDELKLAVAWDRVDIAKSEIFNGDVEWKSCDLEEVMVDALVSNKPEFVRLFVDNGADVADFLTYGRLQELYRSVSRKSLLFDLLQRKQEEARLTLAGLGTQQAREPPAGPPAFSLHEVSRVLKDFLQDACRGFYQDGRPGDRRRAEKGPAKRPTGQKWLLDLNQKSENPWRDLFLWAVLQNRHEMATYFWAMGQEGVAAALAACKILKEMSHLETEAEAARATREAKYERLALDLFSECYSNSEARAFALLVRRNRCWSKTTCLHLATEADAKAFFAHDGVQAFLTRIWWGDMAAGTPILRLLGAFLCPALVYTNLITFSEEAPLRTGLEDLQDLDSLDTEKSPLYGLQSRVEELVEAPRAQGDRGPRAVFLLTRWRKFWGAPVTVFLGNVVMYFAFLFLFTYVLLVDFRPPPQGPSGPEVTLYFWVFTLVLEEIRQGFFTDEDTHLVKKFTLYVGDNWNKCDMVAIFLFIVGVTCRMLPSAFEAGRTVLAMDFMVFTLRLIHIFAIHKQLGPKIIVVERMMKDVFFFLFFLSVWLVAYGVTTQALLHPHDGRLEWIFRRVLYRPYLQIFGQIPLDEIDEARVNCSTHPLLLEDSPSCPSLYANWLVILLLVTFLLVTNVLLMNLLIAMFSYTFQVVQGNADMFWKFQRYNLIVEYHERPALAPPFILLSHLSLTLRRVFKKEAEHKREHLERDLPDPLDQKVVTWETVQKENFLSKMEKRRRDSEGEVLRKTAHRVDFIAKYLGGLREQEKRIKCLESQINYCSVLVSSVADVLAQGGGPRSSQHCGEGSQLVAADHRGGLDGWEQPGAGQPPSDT
pEC50: −log10 of the molar value.
ASSAY READOUT: pEC50

* C=CCNC(=S)/N=c1/sc2ccccc2n1C | 5.03

====

assay: Apparent permeability across apical to basolateral side in human Caco-2 cells; format: ADME, cell-based
ASSAY READOUT: Papp A→B

- N#Cc1ccc2c(c1)C[C@H](CO)N[C@@H]2c1cc(F)cc(Cl)c1 (racemic): 10.3 ×10⁻⁶ cm/s

====

molecular target: UniProtKB Q8TD43; experiment: Agonist activity at human TRPM4 expressed in CHO-K1 cells assessed as increase in relative fluorescence unit by measuring membrane potential by FLIPR assay
Sequence (Q8TD43 whole entry): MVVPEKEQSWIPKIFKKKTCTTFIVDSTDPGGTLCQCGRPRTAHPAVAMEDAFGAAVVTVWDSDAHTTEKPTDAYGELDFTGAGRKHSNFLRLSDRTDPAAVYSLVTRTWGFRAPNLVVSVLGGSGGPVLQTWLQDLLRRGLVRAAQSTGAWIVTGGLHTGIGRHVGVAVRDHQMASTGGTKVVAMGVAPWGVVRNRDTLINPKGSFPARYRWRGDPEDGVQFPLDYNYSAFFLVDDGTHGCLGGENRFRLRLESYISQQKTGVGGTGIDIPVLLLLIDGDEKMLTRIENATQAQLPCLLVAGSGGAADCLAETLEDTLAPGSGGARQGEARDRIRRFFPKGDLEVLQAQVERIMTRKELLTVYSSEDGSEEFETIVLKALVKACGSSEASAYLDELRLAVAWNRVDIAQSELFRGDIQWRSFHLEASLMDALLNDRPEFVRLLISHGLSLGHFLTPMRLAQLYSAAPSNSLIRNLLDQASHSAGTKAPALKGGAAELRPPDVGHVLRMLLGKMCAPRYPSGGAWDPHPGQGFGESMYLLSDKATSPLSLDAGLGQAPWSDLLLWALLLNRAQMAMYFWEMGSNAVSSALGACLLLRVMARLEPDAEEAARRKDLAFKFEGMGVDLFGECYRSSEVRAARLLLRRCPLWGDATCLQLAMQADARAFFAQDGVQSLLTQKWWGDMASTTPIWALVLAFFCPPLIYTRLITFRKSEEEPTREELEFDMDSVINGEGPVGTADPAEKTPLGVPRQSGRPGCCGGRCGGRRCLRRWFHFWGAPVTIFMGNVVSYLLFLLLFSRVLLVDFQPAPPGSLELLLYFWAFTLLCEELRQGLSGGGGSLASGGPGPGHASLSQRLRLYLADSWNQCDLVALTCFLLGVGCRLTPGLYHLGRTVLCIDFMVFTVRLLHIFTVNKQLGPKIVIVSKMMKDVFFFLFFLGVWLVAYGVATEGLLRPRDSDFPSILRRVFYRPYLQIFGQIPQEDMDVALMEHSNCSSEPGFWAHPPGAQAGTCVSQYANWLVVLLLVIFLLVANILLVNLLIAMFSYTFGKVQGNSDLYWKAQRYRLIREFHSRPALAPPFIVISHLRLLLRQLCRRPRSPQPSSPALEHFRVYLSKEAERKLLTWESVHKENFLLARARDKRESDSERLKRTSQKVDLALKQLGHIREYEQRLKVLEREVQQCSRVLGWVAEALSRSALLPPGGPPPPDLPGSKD
ASSAY READOUT: log10(EC50) (log10 of the value in µM)

* OC[C@@H]1Cc2ccc(Cl)cc2[C@H](c2cc(F)cc(F)c2)N1 | -0.23
* N#Cc1ccc2c(c1)C[C@H](CO)N[C@@H]2c1cc(F)cc(Cl)c1 (racemic) | 1.06
* OC[C@@H]1Cc2ccc(Cl)cc2[C@H](c2cc(F)cc(Cl)c2)N1 | 0.13
* N#Cc1ccc2c(c1)C[C@H](CO)N[C@@H]2c1cc(F)cc(Cl)c1 | 1.72
* OC[C@@H]1Cc2ccc(Cl)cc2[C@H](c2cccc(Cl)c2)N1 | 0.26
* OC[C@@H]1Cc2ccc(Cl)cc2[C@H](c2ccccc2)N1 (racemic) | 1.39
* OC[C@@H]1Cc2ccc(Cl)cc2[C@H](c2cc(Cl)cc(Cl)c2)N1 | 0.95
* OC[C@@H]1Cc2ccc(Cl)cc2[C@H](c2cccc(F)c2)N1 | 0.23
* OC[C@@H]1Cc2cc(Cl)ccc2[C@H](c2ccccc2)N1 | 1.42
* Cc1cc([C@@H]2N[C@H](CO)Cc3ccc(Cl)cc32)ccc1Cl | 1.41

====

assay: Unbound fraction in mouse plasma; format: ADME, cell-free
ASSAY READOUT: fraction unbound

- N#Cc1ccc2c(c1)C[C@H](CO)N[C@@H]2c1cc(F)cc(Cl)c1 (racemic): 0.115

====

test: Intrinsic clearance in Sprague-Dawley rat; assay type: ADME
ASSAY READOUT: CLint scaled (mL/min/kg)

- C=CCNC(=S)/N=c1/sc2ccccc2n1C: 540

====

target: Transient receptor potential cation channel subfamily V member 1 (Homo sapiens, UniProt Q8NER1); assay: Agonist activity at human TRPV1
Sequence (Q8NER1 whole entry): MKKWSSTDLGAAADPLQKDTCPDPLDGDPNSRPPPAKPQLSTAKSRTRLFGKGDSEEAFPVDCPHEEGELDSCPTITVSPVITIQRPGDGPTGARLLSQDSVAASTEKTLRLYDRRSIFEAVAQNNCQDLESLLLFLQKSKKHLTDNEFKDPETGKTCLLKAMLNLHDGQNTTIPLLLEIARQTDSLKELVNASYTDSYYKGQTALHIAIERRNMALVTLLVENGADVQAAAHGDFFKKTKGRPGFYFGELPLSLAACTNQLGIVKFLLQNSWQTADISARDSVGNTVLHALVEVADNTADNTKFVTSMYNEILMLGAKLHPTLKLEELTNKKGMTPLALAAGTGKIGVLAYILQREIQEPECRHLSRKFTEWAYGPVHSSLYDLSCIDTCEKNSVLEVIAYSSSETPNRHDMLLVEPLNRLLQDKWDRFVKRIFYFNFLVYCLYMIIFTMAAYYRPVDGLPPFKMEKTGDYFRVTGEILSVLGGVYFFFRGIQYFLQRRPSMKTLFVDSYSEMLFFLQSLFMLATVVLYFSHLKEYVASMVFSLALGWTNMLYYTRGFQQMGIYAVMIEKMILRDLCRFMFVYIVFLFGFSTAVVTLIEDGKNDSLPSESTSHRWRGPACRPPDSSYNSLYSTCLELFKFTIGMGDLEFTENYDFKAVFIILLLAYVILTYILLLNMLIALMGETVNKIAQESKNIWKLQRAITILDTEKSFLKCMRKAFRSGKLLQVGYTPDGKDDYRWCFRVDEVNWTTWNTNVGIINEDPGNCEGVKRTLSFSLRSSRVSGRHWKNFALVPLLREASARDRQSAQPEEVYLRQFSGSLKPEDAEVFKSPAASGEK
pEC50: −log10 of the molar value.
ASSAY READOUT: pEC50

- N#Cc1ccc2c(c1)C[C@H](CO)N[C@@H]2c1cc(F)cc(Cl)c1: < 4.80

====

assay: Apparent permeability across basolateral to apical side in human Caco-2 cells; type: ADME, cell-based
ASSAY READOUT: Papp B→A (×10⁻⁶ cm/s)

* N#Cc1ccc2c(c1)C[C@H](CO)N[C@@H]2c1cc(F)cc(Cl)c1 (racemic) | 15.4

====

biological target: UniProtKB Q9NZQ8; assay: Agonist activity at human TRPM5 expressed in CHO-K1 cells assessed as increase in relative fluorescence unit measured for 2 mins by FLIPR based membrane potential assay; type: cell-based
pEC50: −log10 of the molar value.
# maps each entry to its pEC50
ASSAY READOUT: pEC50

- Cc1ccc([C@@H]2N[C@H](CO)Cc3ccc(Cl)cc32)cc1: 5.20
- OC[C@@H]1Cc2cc(Cl)c(F)cc2[C@H](c2ccccc2)N1: 6.50
- OC[C@@H]1Cc2ccc(Cl)cc2[C@H](c2cccc(F)c2)N1: 6.50
- COC[C@@H]1Cc2ccc(Cl)cc2[C@H](c2ccccc2)N1: 4.80

Hey, just so you know, these numbers are from ChEMBL document CHEMBL5150049.
